Test system: Escherichia coli
Assay: Concentration required to inhibit Escherichia coli H 560 stain by standard agar dilution method.
Format: functional
observation type: MIC (µg/mL)

Completed entries (count: 2):
CC[C@H]1OC(=O)[C@H](C)[C@@H](O[C@H]2C[C@@](C)(OC)[C@@H](O)[C@H](C)O2)[C@H](C)[C@@H](O[C@H]2O[C@H](C)C[C@H](N(C)C)[C@H]2O)[C@@](C)(O)C[C@@H](C)[C@@H](N(C)C)[C@H](C)[C@@H](O)[C@@]12CO2 | 25
CC[C@H]1OC(=O)[C@H](C)[C@@H](O[C@H]2C[C@@](C)(OC)[C@@H](O)[C@H](C)O2)[C@H](C)[C@@H](O[C@@H]2O[C@H](C)C[C@H](N(C)C)[C@H]2O)[C@@](C)(O)C[C@@H](C)[C@@H](N(C)C)[C@H](C)[C@@H](O)[C@@]1(O)CO | 25

[P] CC[C@H]1OC(=O)[C@H](C)[C@@H](O[C@H]2C[C@@](C)(OC)[C@@H](O)[C@H](C)O2)[C@H](C)[C@@H](O[C@@H]2O[C@H](C)C[C@H](N(C)C)[C@H]2O)[C@@](C)(O)C[C@@H](C)[C@@H](N(C)C)[C@H](C)[C@@H](O)[C@]1(C)O
[Q] CC[C@H]1OC(=O)[C@H](C)[C@@H](O[C@H]2C[C@@](C)(OC)[C@@H](O)[C@H](C)O2)[C@H](C)[C@@H](O[C@@H]2O[C@H](C)C[C@H](N(C)C)[C@H]2O)[C@@](C)(O)C[C@@H](C)[C@@H](N(C)C)[C@H](C)[C@@H](O)[C@H]1CO
(Q) Could you determine which record has the numerically smaller MIC? Candidates: P and Q // output: label of the selected item
(A) P

* * *

Tested on: Escherichia coli
Test: Concentration required to inhibit Escherichia coli SS stain by standard agar dilution method.
Assay type: functional
observation type: MIC (µg/mL)

CC[C@H]1OC(=O)[C@H](C)[C@@H](O[C@H]2C[C@@](C)(OC)[C@@H](O)[C@H](C)O2)[C@H](C)[C@@H](O[C@@H]2O[C@H](C)C[C@H](N(C)C)[C@H]2O)[C@@](C)(O)C[C@@H](C)[C@@H](N(C)C)[C@H](C)[C@@H](O)[C@]1(C)O | 0.1
CC[C@H]1OC(=O)[C@H](C)[C@@H](O[C@H]2C[C@@](C)(OC)[C@@H](O)[C@H](C)O2)[C@H](C)[C@@H](O[C@@H]2O[C@H](C)C[C@H](N(C)C)[C@H]2O)[C@@](C)(O)C[C@@H](C)[C@@H](N(C)C)[C@H](C)[C@@H](O)[C@H]1CO | 0.39

[P] CC[C@H]1OC(=O)[C@H](C)[C@@H](O[C@H]2C[C@@](C)(OC)[C@@H](O)[C@H](C)O2)[C@H](C)[C@@H](O[C@@H]2O[C@H](C)C[C@H](N(C)C)[C@H]2O)[C@@](C)(O)C[C@@H](C)[C@@H](N(C)C)[C@H](C)[C@@H](O)[C@@]1(O)CO
[Q] CC[C@H]1OC(=O)[C@H](C)[C@@H](O[C@H]2C[C@@](C)(OC)[C@@H](O)[C@H](C)O2)[C@H](C)[C@@H](O[C@H]2O[C@H](C)C[C@H](N(C)C)[C@H]2O)[C@@](C)(O)C[C@@H](C)[C@@H](N(C)C)[C@H](C)[C@@H](O)[C@@]12CO2
(Q) Short answer wanted: higher MIC, P or Q ? // output: label of the selected item
(A) P

* * *

System: Escherichia coli
Test: Concentration required to inhibit Escherichia coli DC-2 stain by standard agar dilution method.
Assay type: functional
observation type: MIC (µg/mL)

CC[C@H]1OC(=O)[C@H](C)[C@@H](O[C@H]2C[C@@](C)(OC)[C@@H](O)[C@H](C)O2)[C@H](C)[C@@H](O[C@@H]2O[C@H](C)C[C@H](N(C)C)[C@H]2O)[C@@](C)(O)C[C@@H](C)[C@@H](N(C)C)[C@H](C)[C@@H](O)[C@@]1(O)CO | 50
CC[C@H]1OC(=O)[C@H](C)[C@@H](O[C@H]2C[C@@](C)(OC)[C@@H](O)[C@H](C)O2)[C@H](C)[C@@H](O[C@@H]2O[C@H](C)C[C@H](N(C)C)[C@H]2O)[C@@](C)(O)C[C@@H](C)[C@@H](N(C)C)[C@H](C)[C@@H](O)[C@H]1CO | 50

[I] CC[C@H]1OC(=O)[C@H](C)[C@@H](O[C@H]2C[C@@](C)(OC)[C@@H](O)[C@H](C)O2)[C@H](C)[C@@H](O[C@H]2O[C@H](C)C[C@H](N(C)C)[C@H]2O)[C@@](C)(O)C[C@@H](C)[C@@H](N(C)C)[C@H](C)[C@@H](O)[C@@]12CO2
[II] CC[C@H]1OC(=O)[C@H](C)[C@@H](O[C@H]2C[C@@](C)(OC)[C@@H](O)[C@H](C)O2)[C@H](C)[C@@H](O[C@@H]2O[C@H](C)C[C@H](N(C)C)[C@H]2O)[C@@](C)(O)C[C@@H](C)[C@@H](N(C)C)[C@H](C)[C@@H](O)[C@]1(C)O
(Q) Short answer wanted: higher MIC, I or II ? // output: label of the selected item
(A) I
(I: 50 µg/mL, II: 25 µg/mL)

* * *

System: Micrococcus luteus
Assay: Concentration required to inhibit Micrococcus luteus ATCC 9341 stain by standard agar dilution method.
Format: functional
observation type: MIC (µg/mL)

Completed entries (count: 2):
CC[C@H]1OC(=O)[C@H](C)[C@@H](O[C@H]2C[C@@](C)(OC)[C@@H](O)[C@H](C)O2)[C@H](C)[C@@H](O[C@@H]2O[C@H](C)C[C@H](N(C)C)[C@H]2O)[C@@](C)(O)C[C@@H](C)[C@@H](N(C)C)[C@H](C)[C@@H](O)[C@H]1CO | 0.78
CC[C@H]1OC(=O)[C@H](C)[C@@H](O[C@H]2C[C@@](C)(OC)[C@@H](O)[C@H](C)O2)[C@H](C)[C@@H](O[C@H]2O[C@H](C)C[C@H](N(C)C)[C@H]2O)[C@@](C)(O)C[C@@H](C)[C@@H](N(C)C)[C@H](C)[C@@H](O)[C@@]12CO2 | 0.1

[I] CC[C@H]1OC(=O)[C@H](C)[C@@H](O[C@H]2C[C@@](C)(OC)[C@@H](O)[C@H](C)O2)[C@H](C)[C@@H](O[C@@H]2O[C@H](C)C[C@H](N(C)C)[C@H]2O)[C@@](C)(O)C[C@@H](C)[C@@H](N(C)C)[C@H](C)[C@@H](O)[C@@]1(O)CO
[II] CC[C@H]1OC(=O)[C@H](C)[C@@H](O[C@H]2C[C@@](C)(OC)[C@@H](O)[C@H](C)O2)[C@H](C)[C@@H](O[C@@H]2O[C@H](C)C[C@H](N(C)C)[C@H]2O)[C@@](C)(O)C[C@@H](C)[C@@H](N(C)C)[C@H](C)[C@@H](O)[C@]1(C)O
(Q) Could you determine which record has the numerically smaller MIC? Candidates: I and II // output: label of the selected item
(A) II
(II: 0.1 µg/mL, I: 6.2 µg/mL)

* * *

Tested on: Pseudomonas aeruginosa
Test: Concentration required to inhibit Pseudomonas aeruginosa K799/61 stain by standard agar dilution method.
Assay type: functional
observation type: MIC (µg/mL)

Completed entries (count: 2):
CC[C@H]1OC(=O)[C@H](C)[C@@H](O[C@H]2C[C@@](C)(OC)[C@@H](O)[C@H](C)O2)[C@H](C)[C@@H](O[C@@H]2O[C@H](C)C[C@H](N(C)C)[C@H]2O)[C@@](C)(O)C[C@@H](C)[C@@H](N(C)C)[C@H](C)[C@@H](O)[C@@]1(O)CO | 50
CC[C@H]1OC(=O)[C@H](C)[C@@H](O[C@H]2C[C@@](C)(OC)[C@@H](O)[C@H](C)O2)[C@H](C)[C@@H](O[C@@H]2O[C@H](C)C[C@H](N(C)C)[C@H]2O)[C@@](C)(O)C[C@@H](C)[C@@H](N(C)C)[C@H](C)[C@@H](O)[C@]1(C)O | 12.5

[P] CC[C@H]1OC(=O)[C@H](C)[C@@H](O[C@H]2C[C@@](C)(OC)[C@@H](O)[C@H](C)O2)[C@H](C)[C@@H](O[C@@H]2O[C@H](C)C[C@H](N(C)C)[C@H]2O)[C@@](C)(O)C[C@@H](C)[C@@H](N(C)C)[C@H](C)[C@@H](O)[C@H]1CO
[Q] CC[C@H]1OC(=O)[C@H](C)[C@@H](O[C@H]2C[C@@](C)(OC)[C@@H](O)[C@H](C)O2)[C@H](C)[C@@H](O[C@H]2O[C@H](C)C[C@H](N(C)C)[C@H]2O)[C@@](C)(O)C[C@@H](C)[C@@H](N(C)C)[C@H](C)[C@@H](O)[C@@]12CO2
(Q) Short answer wanted: higher MIC, P or Q ? // output: label of the selected item
(A) Q
(Q: 12.5 µg/mL, P: 1.56 µg/mL)
